assayed system: Syk (356-635 amino acids) catalytic domain (Homo sapiens (Human))
experimental protocol: Inhibition of enzymatic Syk kinase activity (radiometric)
Assay type: biochemical
condition notes: read-out: IC50 Syk
Record form. Attribute: IC50. Fill in for each entry.

State its IC50 on Syk (356-635 amino acids) catalytic domain (Homo sapiens (Human)): "O=c1[nH]ncc2nc(-c3ccccc3)nc(Nc3ccc(CN4CCOCC4)cc3)c12" < 100 nM

State its IC50 on Syk (356-635 amino acids) catalytic domain (Homo sapiens (Human)): "O=C(O)C1CCN(CCOc2ccc(Nc3nc(N4CCCCCC4)nc4cn[nH]c(=O)c34)cc2)CC1" < 50 nM

State its IC50 on Syk (356-635 amino acids) catalytic domain (Homo sapiens (Human)): "O=C(O)[C@H]1CO[C@H](COc2ccc(Nc3nc(N4CCCCCC4)nc4cn[nH]c(=O)c34)cc2)CO1" < 10 nM

State its IC50 on Syk (356-635 amino acids) catalytic domain (Homo sapiens (Human)): "O=C(O)CCC1CCN(c2ccc(Nc3nc(-c4ccccc4)nc4cn[nH]c(=O)c34)cc2)CC1" < 50 nM

State its IC50 on Syk (356-635 amino acids) catalytic domain (Homo sapiens (Human)): "O=c1[nH]ncc2nc(N3CCCCCC3)nc(Nc3cccc(CO)c3)c12" > 100 nM

State its IC50 on Syk (356-635 amino acids) catalytic domain (Homo sapiens (Human)): Cl.O=c1[nH]ncc2nc(-c3ccccc3)nc(Nc3ccc(CN4CCNCC4)cc3)c12 [Example 7, hydrochloride] < 50 nM

State its IC50 on Syk (356-635 amino acids) catalytic domain (Homo sapiens (Human)): "O=c1[nH]ncc2nc(N3CCCCCC3)nc(Nc3ccc(N4CCC(F)(F)CC4)cc3)c12" > 100 nM

State its IC50 on Syk (356-635 amino acids) catalytic domain (Homo sapiens (Human)): "O=c1[nH]ncc2nc(N3CCOCC3)nc(Nc3ccc(OCCN4CCNCC4)cc3)c12" > 100 nM

The measurements presented in this section are drawn from patent US10183944B2.
